# ASSAYED TARGET: N-terminal Xaa-Pro-Lys N-methyltransferase 1 (Homo sapiens) (UniProt Q9BV86)
# Sequence (Q9BV86 whole entry, looked up): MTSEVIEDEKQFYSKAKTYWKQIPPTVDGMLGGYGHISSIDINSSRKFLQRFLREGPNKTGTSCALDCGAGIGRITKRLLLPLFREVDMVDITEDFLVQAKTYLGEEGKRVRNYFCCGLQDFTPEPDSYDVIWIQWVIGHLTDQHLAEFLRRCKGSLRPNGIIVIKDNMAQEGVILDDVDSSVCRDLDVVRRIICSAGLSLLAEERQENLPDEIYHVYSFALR
# PROTOCOL TEXT: Confirmatory qHTS for Inhibitors of N-terminal methyltransferase 1 (NTMT1): MTaseGlo Assay (AID 1645874); further: nearly all actives have a fitted effect of over 65% in size
# SETTINGS: NTMT1 enzyme, MTase-Glo SAH luminescence; series mostly up to 100 µM
Records with an inconclusive call do not appear. Activity calls are given as the source filed them. The call rests on the fitted dose curve; in most records, active means well fitted inhibition curve with a large enough effect; inconclusive means small, poorly fitted or top-dose-only effect; inactive means no such curve, though single readings can be large or run the other way.
Possible outcomes: 1 for active, 0 for inactive

COMPOUND: CC(Oc1cc(-n2cnc3ccc(CN4CCN(C)CC4)cc32)sc1C(N)=O)c1ccccc1C(F)(F)F (centres undefined)
DISCRETE LABEL: 1
--
COMPOUND: C[C@@H](Oc1cc(-n2cnc3ccc(OC4CCN(C)CC4)cc32)sc1C(N)=O)c1ccccc1C(F)(F)F
DISCRETE LABEL: 1
--
COMPOUND: CCn1c(=O)c(-c2ccn[nH]2)cc2c(C)nc(N)nc21
DISCRETE LABEL: 0
--
COMPOUND: COc1cc2c(NC3CCN(CC4CCCCC4)CC3)nc(N3CCCN(C(C)C)CC3)nc2cc1OCCCN1CCCCC1
DISCRETE LABEL: 1
--
COMPOUND: Cc1cnc(Nc2ccc(F)cc2Cl)nc1-c1c[nH]c(C(=O)NC(CO)c2cccc(Cl)c2)c1 (centres undefined)
DISCRETE LABEL: 0
--
COMPOUND: CCOc1cc2ncc(C#N)c(Nc3ccc(F)c(Cl)c3)c2cc1NC(=O)/C=C/CN(C)C
DISCRETE LABEL: 1
--
COMPOUND: Nc1ncnc2c1nc(N)n2[C@@H]1O[C@H](CO)[C@@H](O)[C@H]1O
DISCRETE LABEL: 0
--
COMPOUND: CCCNc1ccc2ncc(-c3ccc4[nH]ncc4c3)n2n1
DISCRETE LABEL: 1
--
COMPOUND: Cc1ccc(-c2ccc3ncc4c(c3n2)n(C2CCN(C(=O)[C@H](C)O)CC2)c(=O)n4C)cn1
DISCRETE LABEL: 1

----------
# System: CASKI
# PROTOCOL TEXT: Primary qHTS to identify gynecologic anti-cancer compounds using libraries of approved drugs and bioactive compounds (AID 1345084); further: nearly all actives have a fitted effect of over 55% in size
# SETTINGS: Gynecologic cancer cell panel viability, ATPlite luminescence, 48 h; series mostly up to 57.5 µM
# Text: National Center for Advancing Translational Sciences [NCATS] Assay Overview: Chemotherapeutic drug responses vary from cancer to cancer and from patient to patient. […] ATPlite is a luminescence based assay reliant on the conversion of a luciferase substrate to light in the presence of ATP. As a cytotoxic compound will suppress growth and decrease the number of cells, the concentration of ATP will decrease, and less light signal will be detected in the well. […]
Records with an inconclusive call do not appear. The source made the active and inactive calls. The call rests on the fitted dose curve; in most records, active means well fitted cell-killing curve with a large enough effect; inconclusive means small, poorly fitted or top-dose-only effect, or effect the other way; inactive means flat fitted curve, though single readings scatter.
Classes used: active, inactive

COMPOUND: COc1ccc(C[C@H](N)C(=O)N[C@@H]2[C@H](O)[C@H](n3cnc4c(N(C)C)ncnc43)O[C@@H]2CO)cc1
ASSAYED TARGET: CASKI
DISCRETE LABEL: active
//
COMPOUND: CCOc1ccc(NC(=S)N2CCC(C(O)(c3ccccc3)c3ccccc3)CC2)cc1
ASSAYED TARGET: CASKI
DISCRETE LABEL: inactive
//
COMPOUND: OC[C@H]1O[C@@H](O[C@H]2[C@H](OCc3ccccc3)O[C@H](CO[C@@H]3OC[C@@H](O)[C@H](O)[C@H]3O)[C@@H](O)[C@@H]2O)[C@H](O)[C@@H](O)[C@@H]1O
ASSAYED TARGET: CASKI
DISCRETE LABEL: inactive
//
COMPOUND: O=[N+]([O-])c1cn2c(n1)OCC(OCc1ccc(OC(F)(F)F)cc1)C2 (centres undefined)
ASSAYED TARGET: CASKI
DISCRETE LABEL: inactive
//
COMPOUND: CCC(C)/C=C(C)/C=C/c1cc2c(cn1)C(=O)C(C)(OC(C)=O)C(O)=C2Cl (centres undefined)
ASSAYED TARGET: CASKI
DISCRETE LABEL: inactive
//
COMPOUND: CCOC(=O)C(CCc1ccccc1)NC(C)C(=O)N1C(=O)N(C)CC1C(=O)O (centres undefined)
ASSAYED TARGET: CASKI
DISCRETE LABEL: inactive
//
COMPOUND: COc1ccc(/C=C/C(=O)O[C@@H]2[C@@H](O)[C@@H](O)[C@H](O[C@@H]3C=C(CO)[C@H]4[C@H](O[C@@H]5O[C@H](CO)[C@@H](O)[C@H](O)[C@H]5O)OC=C[C@H]43)O[C@H]2C)cc1O
ASSAYED TARGET: CASKI
DISCRETE LABEL: inactive
//
COMPOUND: CC(C)c1nnc(-c2ccc(-c3ccccc3)nc2)n1-c1cccc2nonc12
ASSAYED TARGET: CASKI
DISCRETE LABEL: inactive
//
COMPOUND: OC/C=C/c1ccc(O[C@@H]2O[C@H](CO)[C@@H](O)[C@H](O)[C@H]2O)cc1
ASSAYED TARGET: CASKI
DISCRETE LABEL: inactive
//
COMPOUND: COc1ccc([C@@H]2OC[C@H]3[C@@H]2CO[C@@H]3c2ccc(OC3OC(CO)C(O)C(O)C3O)c(OC)c2)cc1OC (some centres undefined)
ASSAYED TARGET: CASKI
DISCRETE LABEL: inactive
//
COMPOUND: C=C[C@H]1[C@H](O[C@@H]2O[C@H](CO)[C@@H](O)[C@H](O)[C@H]2O)OC=C(C(=O)OC)[C@H]1CC(=O)O
ASSAYED TARGET: CASKI
DISCRETE LABEL: inactive
//
COMPOUND: C=C(C(=O)OC)C1C(O)CC2(C)C(O)CCC(=O)C2C1O (centres undefined)
ASSAYED TARGET: CASKI
DISCRETE LABEL: inactive
//
COMPOUND: O=C(NOCC(O)CO)c1ccc(F)c(F)c1Nc1ccc(I)cc1F (centres undefined)
ASSAYED TARGET: CASKI
DISCRETE LABEL: inactive
//
COMPOUND: Cc1cccc(C)c1-n1c(=O)c2cnc(Nc3ccc(N4CCN(C)CC4)cc3)nc2n2c3ccccc3nc12
ASSAYED TARGET: CASKI
DISCRETE LABEL: active
//
COMPOUND: Cc1ccc(-c2ccc3ncc4c(c3n2)n(C2CCN(C(=O)[C@H](C)O)CC2)c(=O)n4C)cn1
ASSAYED TARGET: CASKI
DISCRETE LABEL: active
//
COMPOUND: CC[C@H](NC(=O)[C@H](CS(=O)(=O)CC1CC1)N[C@@H](c1ccc(F)cc1)C(F)(F)F)C(=O)C(=O)NC1CC1
ASSAYED TARGET: CASKI
DISCRETE LABEL: inactive
//
COMPOUND: C=C1CCC2C(C)(C)CCC[C@]2(C)[C@H]1C/C=C(\CO)C(=O)C(=O)O (some centres undefined)
ASSAYED TARGET: CASKI
DISCRETE LABEL: inactive
//
COMPOUND: C=CC(=O)Nc1cc(Nc2nccc(-c3c[nH]c4ccccc34)n2)c(OC)cc1N(C)CCN(C)C
ASSAYED TARGET: CASKI
DISCRETE LABEL: active
//
COMPOUND: CC1=C(C(=O)O)/C(=C/CO[C@@H]2O[C@H](COC(=O)/C=C/c3ccc(O)cc3)[C@@H](O)[C@H](O)[C@H]2O)C(O)C1 (some centres undefined)
ASSAYED TARGET: CASKI
DISCRETE LABEL: inactive
//
COMPOUND: C/C=C/C=C/C(O)=C1\C(O)=C(C)C(=O)[C@@]2(C)OC(=O)[C@@](C)(NC(=O)/C=C/C(=O)O)[C@@H]12
ASSAYED TARGET: CASKI
DISCRETE LABEL: inactive
//
COMPOUND: OC[C@H]1O[C@@H](OCCc2ccc(O)cc2)[C@H](O[C@@H]2OC[C@](O)(CO)[C@H]2O)[C@@H](O)[C@@H]1O
ASSAYED TARGET: CASKI
DISCRETE LABEL: inactive
//
COMPOUND: NC(=O)c1cccc(-c2cc(OC(=O)NC3CCCCC3)ccc2O)c1
ASSAYED TARGET: CASKI
DISCRETE LABEL: inactive
//
COMPOUND: CC1(c2nc3c(C(N)=O)cccc3[nH]2)CCCN1 (centres undefined)
ASSAYED TARGET: CASKI
DISCRETE LABEL: inactive
//
COMPOUND: COC(=O)c1cc(OC)cc(OC)c1C(=O)c1c(OC)cc2c(c1O)C1CCCC(C)(O2)O1 (centres undefined)
ASSAYED TARGET: CASKI
DISCRETE LABEL: inactive
//
COMPOUND: CC(C)=CCC(O)/C(C)=C/CO[C@@H]1O[C@H](CO)[C@@H](O)[C@H](O)[C@H]1O (some centres undefined)
ASSAYED TARGET: CASKI
DISCRETE LABEL: inactive
//
COMPOUND: NC1CCC(Nc2cc(-c3cccc(NCc4cccc(F)c4)n3)c(Cl)cn2)CC1 (centres undefined)
ASSAYED TARGET: CASKI
DISCRETE LABEL: active
//
COMPOUND: CCC(C)C(=O)OC1CC(O)C23C4OCC5(C(O)CC2C1(C)C(O)O4)C3C(=O)C(O)C1(C)C(O)(c2ccoc2)CC2OC251 (centres undefined)
ASSAYED TARGET: CASKI
DISCRETE LABEL: inactive
//
COMPOUND: CC1CC(C(O)C(C)(C)O)OC2CC3(C)C4(C)CCC5C(C)(C)C(=O)CCC5(C)C4CCC3(O)C12O (centres undefined)
ASSAYED TARGET: CASKI
DISCRETE LABEL: inactive
//
COMPOUND: CC1=C(COC2OC(CO)C(O)C(O)C2O)C(C(CO)C(=O)O)CC1 (centres undefined)
ASSAYED TARGET: CASKI
DISCRETE LABEL: inactive
//
COMPOUND: CC(C)(F)C[C@@H](N[C@@H](c1ccc(-c2ccc(S(C)(=O)=O)cc2)cc1)C(F)(F)F)C(=O)NC1(C#N)CC1
ASSAYED TARGET: CASKI
DISCRETE LABEL: inactive
//
COMPOUND: O=C(O)c1ccc(CN2CCC(CN[C@@H]3C[C@H]3c3ccccc3)CC2)cc1
ASSAYED TARGET: CASKI
DISCRETE LABEL: inactive
//
COMPOUND: COc1ccc(N2CCOCC2)c2sc(NC(=O)N3CCC(C)(O)CC3)nc12
ASSAYED TARGET: CASKI
DISCRETE LABEL: inactive
//
COMPOUND: FC(F)(F)c1cc(-c2ncn(/C=C\c3nnco3)n2)cc(C(F)(F)F)c1
ASSAYED TARGET: CASKI
DISCRETE LABEL: inactive
//
COMPOUND: CC(O)/C=C/C1C(C)C(O[C@@H]2O[C@H](CO)[C@@H](O)[C@H](O)[C@H]2O)C(O)CC1(C)C (some centres undefined)
ASSAYED TARGET: CASKI
DISCRETE LABEL: inactive
